Measured values drawn from PubChem BioAssay (EPA / NIEHS) for this set.

Read-out: HMG-CoA synthase (HMGCS2), HMGCS2 (gene 3158)
ASSAY PROCEDURE: CLD_HMGCS2_6hr: CellzDirect (CLD) Gene Expression Assay for HMG-CoA synthase (HMGCS2) at 6 hours (AID 2283682);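 note: actives raise HMGCS2 transcript above the 0.2% DMSO vehicle baseline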
Inconclusive results are not listed. The source made the active and inactive calls. Rule for the calls: active = hit-call score of the fitted dose curve at least 0.9, where 1 is the maximum; inconclusive = response in the unintended direction; inactive = score below 0.9.
Thanks in advance; please answer with one of these: active, inactive

Q. Recorded test outcome, item N#CSCSc1nc2ccccc2s1
A. active

Q. Hi, do you know how CCOC(=O)COc1cc(-n2ncc(C(F)(F)F)c(C)c2=O)c(F)cc1Cl came out in this test?
A. inactive

Q. Call for entry CN(C)C(=O)Nc1ccc(Cl)c(Cl)c1 :
A. inactive

Q. Please indicate how the test categorized Oc1ccc(C(c2ccc(O)cc2)C(Cl)(Cl)Cl)cc1 .
A. inactive

Q. Recorded test outcome, item CCC(C)OC(=O)N1CCCCC1CCO (configuration not stated)
A. inactive

Q. // outcome(item) with item = CCN(CC)C(=O)c1cccc(C)c1
A. inactive

Q. Returns: the outcome recorded for CCCCC(CC)COC(=O)c1ccccc1C(=O)O (configuration not stated) in this assay.
A. inactive

Q. What is the recorded call for this compound in the test? COc1c(Cl)ccc(Cl)c1C(=O)O
A. inactive

Q. What was the test verdict on c1ccc(Nc2ccccc2)cc1 ?
A. inactive

Q. Identify the outcome logged in this assay for the compound shown: S=C([S-])NCCNC(=S)[S-].[Mn+2]
A. inactive

Q. Dear all, I need the recorded test outcome for CCC(O)=C1C(=O)CC(C(=O)O)CC1=O (configuration not stated) , thank you.
A. inactive

Q. Recorded test outcome, item COC(=O)c1c(Cl)nn(C)c1S(=O)(=O)NC(=O)Nc1nc(OC)cc(OC)n1
A. inactive
